The entries below are paired with their reported Emax.
# tested_system: M1 muscarinic receptor (Homo sapiens, UniProt P11229)
# Construct: expressed in transfected cells; host or cells: CHO (M1-CHO)
# Sequence (P11229 1-460): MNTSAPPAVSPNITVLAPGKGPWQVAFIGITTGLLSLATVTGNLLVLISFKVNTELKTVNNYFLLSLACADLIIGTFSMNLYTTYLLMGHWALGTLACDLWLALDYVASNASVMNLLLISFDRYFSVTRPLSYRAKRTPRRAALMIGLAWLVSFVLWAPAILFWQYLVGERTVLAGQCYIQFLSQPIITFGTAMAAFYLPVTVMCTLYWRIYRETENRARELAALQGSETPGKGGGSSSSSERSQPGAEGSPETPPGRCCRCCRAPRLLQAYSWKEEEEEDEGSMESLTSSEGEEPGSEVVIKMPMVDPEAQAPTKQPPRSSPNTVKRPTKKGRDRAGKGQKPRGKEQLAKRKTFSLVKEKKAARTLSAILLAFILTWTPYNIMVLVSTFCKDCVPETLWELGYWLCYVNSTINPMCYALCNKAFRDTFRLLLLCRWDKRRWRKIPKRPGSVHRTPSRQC
# test_summary: Functional mobilization of intracellular calcium (FLIPR) in M1-CHO cells
# Format: cell-based
# condition_context: M1 receptor, calcium mobilization; read-out: M1 Efficacy
measurement_label: Emax

[[record]]
compound = "CCOC(=O)N1CCC(N2CCC3(CC2)CN(C(=O)OCCF)c2ccc(F)cc23)CC1"
measurement_label = "Emax"
endpoint_value = "65 to 85%"

[[record]]
compound = "CCCOC(=O)N1CCC(N2CCC3(CC2)CN(C(C)=O)c2ccc(C)cc23)CC1"
measurement_label = "Emax"
endpoint_value = "< 65%"

[[record]]
compound = "CC(C)(C)COC(=O)N1C2CCC1CC(N1CCC3(CC1)COc1ccc(F)cc13)C2 (centres unmarked)"
measurement_label = "Emax"
endpoint_value = "65 to 85%"

[[record]]
compound = "CCOC(=O)C1CCC(N2CCC3(CC2)CN(C(C)=O)c2ccc(F)cc23)CC1 (centres unmarked)"
measurement_label = "Emax"
endpoint_value = "< 65%"

[[record]]
compound = "COC(=O)N1C2CCC1CC(N1CCC3(CC1)CN(C(=O)c1cc(C)n(C)n1)c1ccc(F)cc13)C2 (centres unmarked)"
measurement_label = "Emax"
endpoint_value = "65 to 85%"

[[record]]
compound = "Cc1ccc2c(c1)C1(CCN(C3C4CCCC3CCC4)CC1)CN2 (centres unmarked)"
measurement_label = "Emax"
endpoint_value = "65 to 85%"

[[record]]
compound = "Clc1ccc2c(c1)C1(CCN(C3CCOCC3)CC1)CO2"
measurement_label = "Emax"
endpoint_value = "> 85%"

[[record]]
compound = "CCOC(=O)N1CCC(N2CCC3(CC2)CN(C(C)=O)c2ccc(-c4ccc(C#N)cc4)cc23)CC1"
measurement_label = "Emax"
endpoint_value = "65 to 85%"

[[record]]
compound = "CCOC(=O)N1CCC(N2CCC3(CC2)CN(C(=O)c2ccccc2OC)c2ccc(F)cc23)CC1"
measurement_label = "Emax"
endpoint_value = "< 65%"

[[record]]
compound = "CC(=O)N1CC2(CCN(C3CCC[C@@H](C)C3)CC2)c2cc(F)ccc21 (some centres unmarked)"
measurement_label = "Emax"
endpoint_value = "65 to 85%"

[[record]]
compound = "CC(C)OC(=O)N1C2CCC1CC(N1CCC3(CCc4ccccc43)CC1)C2 (centres unmarked)"
measurement_label = "Emax"
endpoint_value = "< 65%"


Data origin, for the record: patent US7786141B2
